assay: doxorubicin toxicity protection in MRP-1 cells – H69AR cells, CellTiter-Glo, duplicate, MRP-1 activator project, pilot screen (AID 807); settings: H69AR viability with doxorubicin, CellTiter-Glo luminescence; at 10 µM; stronger effect = higher value;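 note: compound pretreatment 18-22 h then 72 h combined with doxorubicin; 0% = doxorubicin alone and 100% = vehicle without doxorubicin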
Measured viability increase by item
Provide the reading as a plain figure in %.

Compound	Test value
O=C(CSc1nnc2ccccn12)N1CCc2ccccc2C1	-0.88

Which viability increase is reported for this compound? COc1ccc(-n2c(C)nc3c(cnn3-c3ccc(C)c(C)c3)c2=O)cc1
2.3

Next entry: CN1CCN(C(=O)c2ccccc2NC(=O)Cc2ccccc2)CC1
-1.06

Next entry: COc1ccccc1N1CCN(C(CNC(=O)C2CCCCC2)c2cccnc2)CC1 (stereo unspecified)
1.93

Next entry: O=C(c1cnc2n(c1=O)CCS2)N1CCc2ccccc21
0.01

Next entry: COCCOC(=O)C1=C(C)N=c2s/c(=C\c3cccs3)c(=O)n2C1c1cccs1 (stereo unspecified)
-0.91

* * *

assay: MRP1 drug-resistance reversers in H69AR cells – cell-based, doxorubicin co-treatment, pilot screen (AID 601); settings: H69AR cells, CellTiter-Glo, 72 h; compound alone cytotoxicity; at 10 µM
Observed property: viability (%)
Provide the reading as a plain figure in %.

Compound	viability, %
Cc1c(NC(=O)c2noc3c2CCc2ccccc2-3)c(=O)n(-c2ccccc2)n1C	99.7
CC(=O)NC(CCS(C)(=O)=O)C(=O)Nc1cc(C)on1 (stereo not drawn)	99.1
CCOC(=O)c1cccc(NC2c3ccccc3C(=O)N2Cc2ccco2)c1 (stereo not drawn)	82.1

Which viability is reported for this compound? Brc1ccccc1-c1nc(-c2ccccc2)no1
74.3

Next entry: COc1ccc(-c2nc(C)c(C(C)=O)n2O)cc1OC
94.9

* * *

experiment: reduced viability of SK-BR-3 breast cancer cells – cell-based, 24 h, human, pilot screen (AID 572); settings: SK-BR-3 viability, CellTiter-Glo luminescence, at 10 µM, stronger effect = lower value;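 note: compound exposure lasted between 18 and 24 h rather than exactly 24 h; 100% = carrier-treated control wells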
Observed property: viability (%)
Provide the reading as a plain figure in %.

Molecule	Value unit	Test value
CCCCOC(=O)Cn1c(=O)oc2ccc(C)cc21	%	102

Which viability is reported for this molecule? CCOC(=O)Cn1nc(-c2ccc(Cl)cc2)cc1N
78

Next entry: Cc1cccc(N2CCN(C(=O)c3cc4ccccc4oc3=O)CC2)c1C
90.5

Next entry: Cc1ccc(C)c(C(=O)CC2(O)C(=O)N(C)c3ccccc32)c1 (stereo unspecified)
112

* * *

assay: viability of HCT116 without oncogenic beta-catenin – human colon tumor cells, pilot screen (AID 823); settings: HCT116 beta-catenin knockout viability, CellTiter-Glo, 60 h; at 10 µM; stronger effect = lower value;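 note: 0% = wells killed by 20 µM Hyamine and 100% = untreated DMSO cell wells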
Inconclusive results are not listed.
Observed property: viability (%)
Provide the reading as a plain figure in %.

Which viability is reported for this molecule? CCCCn1c(CN2CCN(c3ccc(F)cc3)CC2)nc2c1c(=O)n(C)c(=O)n2C
80.3

Next entry: CSCCC(N=CC1=C(O)CC(C)(C)CC1=O)C(=O)O (centres undefined)
93.9

Next entry: CN1CCN(Cc2nc3c(c(=O)n(C)c(=O)n3C)n2Cc2ccccc2Cl)CC1
91.8

Next entry: COc1cc(Cl)c(S(=O)(=O)n2cnc(C)c2)cc1Cl
101

Next entry: Cc1csc(C(C#N)C(=O)c2cc3ccccc3o2)n1 (centres undefined)
93.7

Next entry: O=C(Oc1cccnc1)c1cccc(Cl)c1
101

Next entry: CCC(=O)Oc1ccc2c(C)cc(=O)oc2c1C
102

Next entry: CSc1nc2ccccc2c(=O)n1N
92.2

Next entry: CCOC(=O)N1CCC(NC(=O)C2CCN(S(=O)(=O)c3cccc4cccnc34)CC2)CC1
91.4

Next entry: CCCSCCCNC(=O)Cn1cc2c(n1)CCC(C)C2 (centres undefined)
102

Next entry: COc1ccccc1NC(=O)C1=C(C)Nc2nc(-c3cccs3)nn2C1c1cccnc1 (centres undefined)
86.7

Next entry: CCOC(=O)c1sc(NC(=O)COC(=O)c2ccco2)nc1C
87.7

Next entry: Cc1ccc(OC(=O)CCC(=O)N2CCc3ccccc32)cc1
89.6

Next entry: CCC(C)C1C(C#N)=C(N)OC2=C1C(=O)CC(C)(C)C2 (centres undefined)
103

Next entry: C=CCSc1nnc(-c2cccnc2)o1
101

Next entry: O=C(NCc1ccc(Cl)cc1)C1CCCN(S(=O)(=O)c2cnc[nH]2)C1 (centres undefined)
106

Next entry: CCOC(=O)c1cc2c(=O)n3ccccc3nc2n(Cc2ccccc2)c1=N
77.1

Next entry: Cc1ccccc1-c1nc(CN2CCC(C(=O)NC3CCN(Cc4ccccc4)CC3)CC2)c(C)o1
6.4

Next entry: CN1CCN(CCCNC(=O)c2ccc(CS(=O)(=O)c3ccc(Br)cc3)o2)CC1
95.3

Next entry: CCc1nn(CC(=O)NCCCN2CCc3ccccc3C2)c(=O)c2cc3sccc3n12
78.9

Next entry: CCCSc1nc2c(cnn2-c2ccccc2)c(=O)[nH]1
105

Next entry: CCN(CC)Cc1c(C(=O)OC)nnn1-c1nonc1N
94.2

Next entry: O=c1cc(N2CCN(c3ccccc3)CC2)[nH]c(=O)n1Cc1ccc(F)cc1
89.6

Next entry: CCOc1ccc(NC(=O)CN2C(=O)C3CCCN3C2=O)cc1 (centres undefined)
102

Hello, the source for this data is PubChem BioAssay, in case you need it.
